# System: Skov-3 cells
# test_protocol: CellTiter-Blue cell viability assay, SKOV3 cell line
# Format: cell-based
# measurement_setup: 72 hours treatment, cell growth inhibition
measurement_name: IC50 (µM)
Just the number please, in µM, no unit attached.

Inquiry: Consider the compound shown here: `Cn1c(CCCCCCC(=O)NO)nc2ccccc21` What is its recorded IC50?
Reply text: 3
